Test system: HCI-011.E2 (organoid from an ER-positive breast cancer xenograft)
METHOD NOTES: CTG-3D luminescence at 96 h relative to day-0 seeding control (ratio to day 0); higher = more growth / less cytotoxicity; PDxO 3D drug screen, 96 h, CTG-3D normalised to day-0 seeding control.
CONDITION INFO: 12.5 pM; days in culture: 74
OUTCOME MEASURE: CTG-3D luminescence at 96 h
Provide a numeric answer; units are not to be included.

Item: O=C(c1ccc(F)c(F)c1Nc1ccc(I)cc1F)N1CC(O)([C@@H]2CCCCN2)C1 Test system: HCI-011.E2 Read-out: CTG-3D luminescence at 96 h Value: ? 2.68

Provide the documented CTG-3D luminescence at 96 h with HCI-011.E2 as the system for C=CCn1c(=O)c2cnc(Nc3ccc(N4CCN(C)CC4)cc3)nc2n1-c1cccc(C(C)(C)O)n1 1.66

Query the reported CTG-3D luminescence at 96 h for HCI-011.E2; item: Nc1ccn([C@@H]2O[C@H](CO)[C@@H](O)C2(F)F)c(=O)n1 2.11

API: value(readout=CTG-3D luminescence at 96 h, system=HCI-011.E2) for record CNC(=O)c1cccc(-c2ccc3c(N4CCOC[C@@H]4C)nc(N4CCOC[C@@H]4C)nc3n2)c1 3.1

Look up CTG-3D luminescence at 96 h with HCI-011.E2 for this compound: CC(C)(C(=O)NCC(F)(F)C(F)(F)F)C(=O)N[C@@H]1C(=O)Nc2ccccc2-c2ccccc21 2.34

Quick check: CTG-3D luminescence at 96 h on HCI-011.E2, item Cc1nc(-c2cn3c(n2)-c2ccc(-c4cnn(C(C)(C)C(N)=O)c4)cc2OCC3)n(C(C)C)n1 ? 2.48

Hi! What's the reported CTG-3D luminescence at 96 h for NC(=O)Nc1cc(-c2cccc(F)c2)sc1C(=O)N[C@H]1CCCNC1 on HCI-011.E2? 2.04

Any idea what CTG-3D luminescence at 96 h came out for CCN1CCN(Cc2ccc(Nc3ncc(F)c(-c4cc(F)c5nc(C)n(C(C)C)c5c4)n3)nc2)CC1 on HCI-011.E2? 1.84

* * *

Tested on: HCI-001 (organoid from a triple-negative breast cancer xenograft)
METHOD NOTES: CTG-3D luminescence at 96 h relative to day-0 seeding control (ratio to day 0); higher = more growth / less cytotoxicity; PDxO 3D drug screen, 96 h, CTG-3D normalised to day-0 seeding control.
CONDITION INFO: 0.1 µM; days in culture: 327
OUTCOME MEASURE: CTG-3D luminescence at 96 h
// return just the number, without any unit appended

Given the entry CCN1CCN(Cc2ccc(Nc3ncc(F)c(-c4cc(F)c5nc(C)n(C(C)C)c5c4)n3)nc2)CC1 , report its measured CTG-3D luminescence at 96 h. 1.58

Which CTG-3D luminescence at 96 h value is on record for C[C@@H]1COCCN1c1cc(C2([S@](C)(=N)=O)CC2)nc(-c2cc[nH]c3nccc2-3)n1 ? 1.47

Fill in: CTG-3D luminescence at 96 h of Cc1nc(-c2cn3c(n2)-c2ccc(-c4cnn(C(C)(C)C(N)=O)c4)cc2OCC3)n(C(C)C)n1 is ___ 1.66

CTG-3D luminescence at 96 h lookup needed for COc1cccc2c1C(=O)c1c(O)c3c(c(O)c1C2=O)C[C@@](O)(C(=O)CO)C[C@@H]3O[C@H]1C[C@H](N)[C@H](O)[C@H](C)O1 , thanks. 1.78

Consider the compound shown here: C[C@H](NC(=O)CCC(F)(F)F)C(=O)N[C@@H]1C(=O)N(CCO)c2ncccc2-c2ccccc21 What is its recorded CTG-3D luminescence at 96 h? 1.87

Reported CTG-3D luminescence at 96 h, compound C=CCn1c(=O)c2cnc(Nc3ccc(N4CCN(C)CC4)cc3)nc2n1-c1cccc(C(C)(C)O)n1 : ____ 1.68

Reported CTG-3D luminescence at 96 h, compound O=C(/C=C/c1cccnc1)NCCCCC1CCN(C(=O)c2ccccc2)CC1 : ____ 0.125

Form field: reported CTG-3D luminescence at 96 h of CC(=O)O[C@H]1C(=O)[C@@]2(C)[C@H]([C@H](OC(=O)c3ccccc3)[C@]3(O)C[C@H](OC(=O)[C@H](O)[C@@H](NC(=O)c4ccccc4)c4ccccc4)C(C)=C1C3(C)C)[C@]1(OC(C)=O)CO[C@@H]1C[C@@H]2O 0.686

* * *

Would you mind telling me the reported CTG-3D luminescence at 96 h of each entry?
Test system: HCI-023 (organoid from a triple-negative breast cancer xenograft)
METHOD NOTES: CTG-3D luminescence at 96 h relative to day-0 seeding control (ratio to day 0); higher = more growth / less cytotoxicity; PDxO 3D drug screen, 96 h, CTG-3D normalised to day-0 seeding control.
CONDITION INFO: 625 fM; days in culture: 111
Keep the answer to the number alone.

Which CTG-3D luminescence at 96 h value belongs to C/C=C1\NC(=O)[C@H]2CSSCC/C=C/[C@H](CC(=O)N[C@H](C(C)C)C(=O)N2)OC(=O)[C@H](C(C)C)NC1=O [romidepsin] ? 1.9

If you can, please state the reported CTG-3D luminescence at 96 h value of O=C(O)C1(C(=O)O)CCC1.[NH2-].[NH2-].[Pt+2] [carboplatin] . 1.16

Would you kindly share the measured CTG-3D luminescence at 96 h for O=C(/C=C/c1cccnc1)NCCCCC1CCN(C(=O)c2ccccc2)CC1 [FK866] ? 1.25

Look up CTG-3D luminescence at 96 h for this compound: Nc1ccn([C@@H]2O[C@H](CO)[C@@H](O)C2(F)F)c(=O)n1 [gemcitabine] 1.43

Reported CTG-3D luminescence at 96 h, compound C[C@H](NC(=O)CCC(F)(F)F)C(=O)N[C@@H]1C(=O)N(CCO)c2ncccc2-c2ccccc21 [crenigacestat] : ____ 1.3

Request the reported CTG-3D luminescence at 96 h associated with CCN(c1cc(C#CCN2CCOCC2)cc(C(=O)NCc2c(C)cc(C)[nH]c2=O)c1C)[C@H]1CC[C@H](N(C)CCOC)CC1 2.1

Entry CC(=O)O[C@H]1C(=O)[C@@]2(C)[C@H]([C@H](OC(=O)c3ccccc3)[C@]3(O)C[C@H](OC(=O)[C@H](O)[C@@H](NC(=O)c4ccccc4)c4ccccc4)C(C)=C1C3(C)C)[C@]1(OC(C)=O)CO[C@@H]1C[C@@H]2O [paclitaxel] : reported CTG-3D luminescence at 96 h = ? 1.58

* * *

System: HCI-024 (organoid from a breast cancer xenograft)
METHOD NOTES: CTG-3D luminescence at 96 h relative to day-0 seeding control (ratio to day 0); higher = more growth / less cytotoxicity; PDxO 3D drug screen, 96 h, CTG-3D normalised to day-0 seeding control.
CONDITION INFO: 625 fM; days in culture: 163
OUTCOME MEASURE: CTG-3D luminescence at 96 h
Just the number, please, no unit after it.

For C[C@H](NC(=O)CCC(F)(F)F)C(=O)N[C@@H]1C(=O)N(CCO)c2ncccc2-c2ccccc21 , what is its reported CTG-3D luminescence at 96 h? 1.86

State the recorded CTG-3D luminescence at 96 h for this entry: NC(=O)c1cccc2cn(-c3ccc([C@@H]4CCCNC4)cc3)nc12 2.44

// CTG-3D luminescence at 96 h lookup, key: C=CC(=O)N1CCC[C@@H](n2nc(-c3ccc(Oc4ccccc4)cc3)c3c(N)ncnc32)C1 2.03

Please look up its CTG-3D luminescence at 96 h: CC1(C)CCC(c2ccc(Cl)cc2)=C(CN2CCN(c3ccc(C(=O)NS(=O)(=O)c4ccc(N[C@H](CCN5CCOCC5)CSc5ccccc5)c(S(=O)(=O)C(F)(F)F)c4)cc3)CC2)C1 2.54

Entry C/C=C1\NC(=O)[C@H]2CSSCC/C=C/[C@H](CC(=O)N[C@H](C(C)C)C(=O)N2)OC(=O)[C@H](C(C)C)NC1=O : reported CTG-3D luminescence at 96 h = ? 1.96

* * *

System: HCI-008 (organoid from a HER2-enriched breast cancer xenograft)
METHOD NOTES: CTG-3D luminescence at 96 h relative to day-0 seeding control (ratio to day 0); higher = more growth / less cytotoxicity; PDxO 3D drug screen (set 2), 96 h, CTG-3D normalised to day-0 seeding control.
CONDITION INFO: 0.1 µM; days in culture: 340
OUTCOME MEASURE: CTG-3D luminescence at 96 h
Output spec: single numeric token, no unit.

// lookup CTG-3D luminescence at 96 h for CCOc1ccn(-c2ccc(F)cc2)c(=O)c1C(=O)Nc1ccc(Oc2ccnc(N)c2Cl)c(F)c1 1.76

So what's the measured CTG-3D luminescence at 96 h for this one? CC(=O)c1c(C)c2cnc(Nc3ccc(N4CCNCC4)cn3)nc2n(C2CCCC2)c1=O 2.01

Fill in the blank: the reported CTG-3D luminescence at 96 h of Cc1c(CN2CCN(C(=O)[C@H](C)O)CC2)sc2c(N3CCOCC3)nc(-c3cnc(N)nc3)nc12 is ____. 0.702
